Tested system: human collagenase-3
Method summary: Inhibition of matrix metalloproteases in vitro: human collagenase-3
Settings: hydrolysis of MCA-Pro-Leu-Gly-Leu-DPA-Ala-Arg-NH2 at 37 °C; species of collagenase-III not given
Measured quantity: IC50 (nM)

> print(dat)
                                   compound  result
1  CC(C)[C@@H](NS(=O)(=O)N1CCN(c2ccc(OCc3ccncc3)cc2)CC1)C(=O)O [compound 413]     260

----------
Tested system: human collagenase-1
Method summary: Inhibition of matrix metalloproteases in vitro: collagenase-1
Settings: hydrolysis of MCA-Pro-Leu-Gly-Leu-DPA-Ala-Arg-NH2 at 37 °C; read-out: Collagenase-I IC50
pIC50: −log10 of the molar value.
Measured quantity: pIC50

> print(dat)
                                   compound        tested.system  measured.quantity  result
1  CC(C)[C@@H](NS(=O)(=O)N1CCN(c2ccc(OCc3ccncc3)cc2)CC1)C(=O)O [compound 413]  human collagenase-1              pIC50    5.03

These entries and their values trace back to patent EP0958287B1.
